Assay: AUC in patient with elevated alpha-1- glycoprotein acid level by covariate model
Assay type: ADME, organism-based
Conditions: human, in vivo
endpointName: AUC (ng·h/mL)

COC(=O)N[C@H](C(=O)N[C@@H](Cc1ccccc1)[C@@H](O)CN(Cc1ccc(-c2ccccn2)cc1)NC(=O)[C@@H](NC(=O)OC)C(C)(C)C)C(C)(C)C [ATAZANAVIR]	49600

###

Assay: Half life in patient with => 40 IU/liter ALAT level by covariate model
Assay type: ADME, organism-based
Settings: human, in vivo
endpointName: half-life (h)

COC(=O)N[C@H](C(=O)N[C@@H](Cc1ccccc1)[C@@H](O)CN(Cc1ccc(-c2ccccn2)cc1)NC(=O)[C@@H](NC(=O)OC)C(C)(C)C)C(C)(C)C	7.8

###

Test: Apparent oral clearance in human by one-compartment model
Format: ADME, organism-based
Details: in vivo
endpointName: CL/F

COC(=O)N[C@H](C(=O)N[C@@H](Cc1ccccc1)[C@@H](O)CN(Cc1ccc(-c2ccccn2)cc1)NC(=O)[C@@H](NC(=O)OC)C(C)(C)C)C(C)(C)C	130 mL/min

###

Test: AUC in patient with => 40 IU/liter ALAT level by one-compartment model
Format: ADME, organism-based
Settings: human, in vivo
endpointName: AUC (ng·h/mL)

COC(=O)N[C@H](C(=O)N[C@@H](Cc1ccccc1)[C@@H](O)CN(Cc1ccc(-c2ccccn2)cc1)NC(=O)[C@@H](NC(=O)OC)C(C)(C)C)C(C)(C)C [ATAZANAVIR]	47400

###

Assay: Half life in patient with elevated alpha-1- glycoprotein acid level by one-compartment model
Type: ADME, organism-based
Details: human, in vivo
endpointName: half-life (h)

COC(=O)N[C@H](C(=O)N[C@@H](Cc1ccccc1)[C@@H](O)CN(Cc1ccc(-c2ccccn2)cc1)NC(=O)[C@@H](NC(=O)OC)C(C)(C)C)C(C)(C)C [ATAZANAVIR]	9

Origin of values: ChEMBL document CHEMBL1212800
